List of melting point values.

QUERY: // returns reported melting point for input COC(=O)CC[C@@H](CF)NC(=O)c1ccccc1
RESULT: 99.5 to 100 °C

====

List of melting point values.

CC(C)(C)c1cc(CP(=O)(Oc2ccccc2)Oc2ccccc2)cc(C(C)(C)C)c1O ... 130 °C
CCCCCC(C)N(Cc1ccc(CC(C)(C)C)s1)C(Nc1ccc(OC)cc1OC)=C1C(=O)OC(C)(C)OC1=O (stereo not given) ... 152 to 153 °C
CCn1cnc2c(Nc3cccc(C(F)(F)F)c3)nc(NCCCO)nc21 ... 136 to 137 °C
CC(=O)SCCS(C)(=O)=O ... 57 to 59 °C
CC(C)c1nc(-c2ccccc2)nc(-c2ccc(F)cc2)c1C=C(Br)Br ... 95 to 98 °C

QUERY: // returns reported melting point for input CC[C@H](C)[C@H](Nc1nc(OC)ns1)C(=O)N1CCC[C@H]1C(=O)O
RESULT: 112 to 114 °C

QUERY: Next: COC(=O)C1=C(C)Nc2c(c(=O)n(C)c(=O)n2C)C1c1cccc(Cl)c1 (stereo not given)
RESULT: 230 °C
